B1: TPR t1 (parent)
chain: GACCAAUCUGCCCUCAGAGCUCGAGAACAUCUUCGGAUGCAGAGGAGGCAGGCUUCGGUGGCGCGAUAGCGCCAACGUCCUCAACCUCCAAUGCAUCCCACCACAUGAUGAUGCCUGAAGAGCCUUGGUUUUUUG

Variants of: B1
Assay: polymerase ribozyme fitness, log enrichment relative to wild type (log ratio); higher = more active; in vitro selection for triplet polymerase activity
Hi, to clarify the labels: 1 covers polymerase ribozyme fitness (log ratio) from -3 upward, 0 covers anything below -3.

- VARIANT LABEL: "G60C G93U C114A"
  LABEL VALUE: 1
- VARIANT LABEL: "A2C G44A U59A U96A U112A U129A"
  LABEL VALUE: 1
- VARIANT LABEL: "A16C U87A C123G G128C"
  LABEL VALUE: 1
- VARIANT LABEL: "A5G A18U C28U"
  LABEL VALUE: 0
- VARIANT LABEL: "C28G A111U"
  LABEL VALUE: 1
- VARIANT LABEL: "C56G C102A"
  LABEL VALUE: 1
- VARIANT LABEL: "G77A C88G"
  LABEL VALUE: 1
- VARIANT LABEL: "C13A A43C G44A C72U C76U U126A"
  LABEL VALUE: 0
- VARIANT LABEL: "G61C A66U"
  LABEL VALUE: 1
- VARIANT LABEL: "G51U G61C U87C C123A"
  LABEL VALUE: 0
